system: Hirsutella rhossiliensis; experiment: Effect of nitrogen source on growth, sporulation and spore germination; details: nitrogen source 0.3296 g/L nitrogen; isolate OWVT-1; 5 weeks
test readout: Growth mm-in-diam, on agar (mm-in-diam)
Answers are plain numbers, in mm-in-diam.

Use these answered entries as a reference point.
1) N[C@@H](Cc1c[nH]cn1)C(=O)O [L-Histidine]: 12.8
2) NC(N)=O [Urea]: 16.7
3) NC(CCC(=O)O)C(=O)O (racemic) [DL-Glutamic acid]: 18.7
4) N[C@@H](Cc1ccccc1)C(=O)O [L-Phenylalanine]: 17.5

Quick batch: Growth mm-in-diam, on agar for everything below.
1. N[C@@H](CC(=O)O)C(=O)O [L-Aspartic acid]
2. C[C@@H](O)[C@H](N)C(=O)O (racemic) [DL-Threonine]
3. NCC(=O)O [Glycine]
4. O=[N+]([O-])[O-].[Na+] [NaNO3]

[16.8, 9.0, 10.7, 21.7]

Hello, the source for this data is patent US7384629B2, in case you need it.
